Test: Photostability, percentage remaining undegraded under illumination or in the dark
Settings: percentage remaining undegraded after 4 hours illumination
metricName: Photostability 4 hours (%)
Quick note: give the figure in %, leave out the unit.

compound: O=C1c2cc(Cl)ccc2N=C2N(c3ccc4ccsc4c3)CC[C@@]12O
Photostability 4 hours, %: 89.4

Looking up O=C1c2cc(C(F)(F)F)ccc2N=C2N(c3ccc4ccoc4c3)CC[C@@]12O , I found its Photostability 4 hours recorded as 80.9

Looking up COc1ccc(N2CC[C@@]3(O)C(=O)c4cc(C)c(C(F)(F)F)cc4N=C23)cc1 , I found its Photostability 4 hours recorded as 98.5

Looking up CCC1=CC2N=C3N(c4ccc5ncccc5c4)CC[C@@]3(O)C(=O)C2S1 (stereo partly shown) , I found its Photostability 4 hours recorded as 84.4

----------
Assay: Photostability, percentage remaining undegraded under illumination or in the dark
Conditions: percentage remaining undegraded after 4 hours illumination
metricName: Photostability 4 hours (%)
Quick note: give the figure in %, leave out the unit.

Sample answers from the record:
chemicalStructure: Cc1cc2c(s1)N=C1N(c3ccc(C#N)c(C)c3)CC[C@@]1(O)C2=O
endpointUnit: %
Photostability 4 hours: 98.6

chemicalStructure: O=C1c2cc(C(F)(F)F)ccc2N=C2N(c3ccc4ncccc4c3)CC[C@@]12O
endpointUnit: %
Photostability 4 hours: 90.0

chemicalStructure: CCc1cc2c(s1)N=C1N(c3ccc(C)cc3)CC[C@@]1(O)C2=O
endpointUnit: %
Photostability 4 hours: 86.7

Let us move to another entry and its Photostability 4 hours.
Looking up Cc1ccc2c(c1)C(=O)[C@]1(O)CCN(c3cnc4sccc4c3)C1=N2 , I found its Photostability 4 hours recorded as 91.5

----------
Assay: Photostability, percentage remaining undegraded under illumination or in the dark
Details: percentage remaining undegraded after 24 hours illumination
metricName: Photostability 24 hours (%)
Quick note: give the figure in %, leave out the unit.

Sample answers from the record:
chemicalStructure: Cc1cc2c(cc1F)C(=O)[C@]1(O)CCN(c3ccc4ncccc4c3)C1=N2
Photostability 24 hours (%): 36.4

chemicalStructure: Cc1ccc2c(c1)C(=O)[C@]1(O)CCN(c3ccc4nc(CO)ccc4c3)C1=N2
Photostability 24 hours (%): 35.9

Let us move to another entry and its Photostability 24 hours.
Looking up Cc1nc2cc(N3CC[C@@]4(O)C(=O)c5cc(C)c(C)cc5N=C34)ccc2s1 , I found its Photostability 24 hours recorded as 6.7

----------
Assay: Photostability, percentage remaining undegraded under illumination or in the dark
Conditions: percentage remaining undegraded after 24 hours illumination
Label satisfied when Photostability 24 hours < 10%; otherwise not satisfied.

Example entries begin here.
molecule: Cc1cc2c(cc1C)C(=O)[C@]1(O)CCN(c3ccn4nccc4c3)C1=N2 [BPN-0027488]
labelClass: not satisfied
//
molecule: COc1ncc(N2CC[C@@]3(O)C(=O)c4cc(C)c(C)cc4N=C23)cc1Cl [BPN-0028820]
labelClass: not satisfied
//
molecule: Cc1ncc(N2CC[C@@]3(O)C(=O)c4cc(C)c(C)cc4N=C23)s1 [BPN-0026693]
labelClass: satisfied
//
molecule: Cc1cc2c(cc1F)C(=O)[C@]1(O)CCN(c3ccccc3)C1=N2 [BPN-0026669]
labelClass: not satisfied

Threshold test, Photostability 24 hours < 10%: Cc1cc(N2CC[C@@]3(O)C(=O)c4cc(C)c(C)cc4N=C23)ccn1 [BPN-0028616]
not satisfied

Threshold test, Photostability 24 hours < 10%: Cc1ccc2c(c1)C(=O)[C@@]1(O)C(=N2)N(c2ccccc2)CC1(C)C [BPN-0026282]
satisfied

Threshold test, Photostability 24 hours < 10%: Cc1ccc2c(c1)C(=O)[C@]1(O)CCN(c3ccc4ncc(N)cc4c3)C1=N2 [BPN-0028652]
not satisfied

Threshold test, Photostability 24 hours < 10%: O=C1c2cc(C(F)(F)F)ccc2N=C2N(c3ccccc3)CC[C@@]12O [BPN-0025110]
satisfied

Threshold test, Photostability 24 hours < 10%: COc1ccc(N2CC[C@@]3(O)C(=O)c4cc(C(F)(F)F)ccc4N=C23)cc1 [BPN-0026393]
not satisfied

Threshold test, Photostability 24 hours < 10%: Cc1cc2c(cc1C)C(=O)[C@]1(O)CCN(c3cnc(C)c(C)c3)C1=N2 [BPN-0028694]
not satisfied

----------
Target: Bovine cardiac myosin (Bos taurus (Bovine), UniProt Q9BE39)
Sequence (Q9BE39 whole entry): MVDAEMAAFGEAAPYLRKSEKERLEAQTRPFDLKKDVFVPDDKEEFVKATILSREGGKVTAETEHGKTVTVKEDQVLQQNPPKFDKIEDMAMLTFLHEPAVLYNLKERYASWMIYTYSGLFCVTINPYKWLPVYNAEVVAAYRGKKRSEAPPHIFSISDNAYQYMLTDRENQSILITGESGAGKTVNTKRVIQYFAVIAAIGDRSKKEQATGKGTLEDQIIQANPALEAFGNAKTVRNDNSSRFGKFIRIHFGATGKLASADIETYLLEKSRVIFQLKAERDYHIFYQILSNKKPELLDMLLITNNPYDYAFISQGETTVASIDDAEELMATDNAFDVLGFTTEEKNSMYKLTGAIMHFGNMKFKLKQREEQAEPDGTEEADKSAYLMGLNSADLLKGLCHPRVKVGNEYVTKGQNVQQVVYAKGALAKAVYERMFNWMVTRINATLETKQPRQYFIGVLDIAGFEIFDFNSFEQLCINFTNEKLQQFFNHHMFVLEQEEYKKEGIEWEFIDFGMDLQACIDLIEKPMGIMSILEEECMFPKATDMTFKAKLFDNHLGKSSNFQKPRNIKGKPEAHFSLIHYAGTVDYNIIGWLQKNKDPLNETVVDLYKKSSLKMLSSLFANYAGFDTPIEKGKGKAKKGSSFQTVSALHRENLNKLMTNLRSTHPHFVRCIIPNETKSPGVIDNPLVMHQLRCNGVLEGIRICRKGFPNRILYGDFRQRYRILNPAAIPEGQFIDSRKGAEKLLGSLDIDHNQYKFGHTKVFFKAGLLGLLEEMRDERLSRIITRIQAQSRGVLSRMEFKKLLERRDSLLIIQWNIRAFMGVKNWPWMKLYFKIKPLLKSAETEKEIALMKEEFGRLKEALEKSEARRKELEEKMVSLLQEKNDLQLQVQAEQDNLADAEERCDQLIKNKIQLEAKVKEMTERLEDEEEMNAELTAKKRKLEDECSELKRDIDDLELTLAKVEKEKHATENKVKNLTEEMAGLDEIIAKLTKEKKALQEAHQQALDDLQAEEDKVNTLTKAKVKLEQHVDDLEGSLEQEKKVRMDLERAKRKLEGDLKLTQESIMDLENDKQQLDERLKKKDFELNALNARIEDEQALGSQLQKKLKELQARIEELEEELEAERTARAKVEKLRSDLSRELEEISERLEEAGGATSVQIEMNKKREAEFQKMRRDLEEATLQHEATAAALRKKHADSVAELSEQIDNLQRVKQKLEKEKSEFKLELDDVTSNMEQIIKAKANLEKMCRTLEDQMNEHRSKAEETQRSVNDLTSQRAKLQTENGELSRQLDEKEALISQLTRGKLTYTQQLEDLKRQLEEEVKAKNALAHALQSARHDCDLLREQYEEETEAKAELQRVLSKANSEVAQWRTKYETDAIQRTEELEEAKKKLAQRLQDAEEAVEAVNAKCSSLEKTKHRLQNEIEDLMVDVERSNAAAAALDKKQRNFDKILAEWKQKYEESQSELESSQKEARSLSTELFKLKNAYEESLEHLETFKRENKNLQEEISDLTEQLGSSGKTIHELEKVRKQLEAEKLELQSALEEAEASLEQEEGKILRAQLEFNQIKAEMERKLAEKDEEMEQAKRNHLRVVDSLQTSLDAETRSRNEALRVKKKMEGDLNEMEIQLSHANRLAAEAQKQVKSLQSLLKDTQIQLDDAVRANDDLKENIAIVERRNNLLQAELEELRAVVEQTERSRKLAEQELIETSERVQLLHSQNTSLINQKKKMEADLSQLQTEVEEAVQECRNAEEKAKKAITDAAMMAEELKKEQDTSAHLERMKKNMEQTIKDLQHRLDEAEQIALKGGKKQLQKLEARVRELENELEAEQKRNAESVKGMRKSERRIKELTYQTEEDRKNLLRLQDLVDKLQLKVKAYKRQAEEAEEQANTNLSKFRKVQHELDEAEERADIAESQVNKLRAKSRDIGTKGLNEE
Sequence (P85100 whole entry partner): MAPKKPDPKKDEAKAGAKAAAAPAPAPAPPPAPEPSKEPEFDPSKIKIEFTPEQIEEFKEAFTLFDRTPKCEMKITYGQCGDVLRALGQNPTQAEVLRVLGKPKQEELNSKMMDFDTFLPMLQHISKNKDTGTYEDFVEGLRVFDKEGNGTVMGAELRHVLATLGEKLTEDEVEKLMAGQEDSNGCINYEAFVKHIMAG
Sequence (Q3SZE5 whole entry partner): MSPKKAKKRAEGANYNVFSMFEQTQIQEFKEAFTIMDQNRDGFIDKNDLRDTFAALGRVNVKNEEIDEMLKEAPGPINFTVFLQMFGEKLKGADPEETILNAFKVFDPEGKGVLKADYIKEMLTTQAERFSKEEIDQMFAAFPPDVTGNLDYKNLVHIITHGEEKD
Test: Cardiac muscle myosin II actin-activated ATPase assay (NADH-coupled)
Format: biochemical
Conditions: 300 nM cardiac myosin, 10 μM actin, 25° C.; read-out: CMMII KI
Ki by entry:

compound: Cc1cc2c(cc1C)C(=O)[C@]1(O)CCN(c3ccc(I)cc3)C1=N2 [BPN-0027109]
Ki: 11 µM
//
compound: COc1cc(N2CC[C@@]3(O)C(=O)c4cc(C)c(C)cc4N=C23)ccn1 [BPN-0026709]
Ki: 30.6 µM
//
compound: Cc1ccc2c(c1)C(=O)[C@]1(O)CCN(c3cccc(Br)c3)C1=N2 [BPN-0025240]
Ki: 400 µM
//
compound: CCC1=CC2N=C3N(c4ccc5ncccc5c4)CC[C@@]3(O)C(=O)C2S1 (some centres unmarked) [BPN-0028625]
Ki: 300 µM
//
compound: N#Cc1ccc(N2CC[C@@]3(O)C(=O)c4cc(C(F)(F)F)ccc4N=C23)cc1 [BPN-0026608]
Ki: 50 µM
//
compound: Cc1cc2c(cc1C)C(=O)[C@]1(O)CCN(c3ccc4scnc4c3)C1=N2 [BPN-0027121]
Ki: 19 µM
//
compound: Cc1ccc2c(c1)C(=O)[C@]1(O)CCN(c3ccc4cccnc4c3)C1=N2 [BPN-0027039]
Ki: 68 µM

Looking up Cc1sc2c(c1C)C(=O)[C@]1(O)CCN(c3ccc4ncccc4c3)C1=N2 [BPN-0027376] , I found its Ki recorded as 46 µM

----------
Assay: Photostability, percentage remaining undegraded under illumination or in the dark
Details: percentage remaining undegraded after 4 hours illumination
Label satisfied when Photostability 4 hours < 70%; otherwise not satisfied.

Example entries begin here.
chemicalStructure: Cc1cccc(N2CC[C@@]3(O)C(=O)c4cc(F)c(C)cc4N=C23)c1
labelClass: not satisfied
//
chemicalStructure: Cc1cc2c(s1)N=C1N(c3ccc(C#N)c(Cl)c3)CC[C@@]1(O)C2=O
labelClass: not satisfied
//
chemicalStructure: Cc1ccc2cc(N3CC[C@@]4(O)C(=O)c5sc(C)cc5N=C34)ccc2n1
labelClass: not satisfied

Threshold test, Photostability 4 hours < 70%: COc1ccc(N2CC[C@@]3(O)C(=O)c4cc(C)c(C)cc4N=C23)cc1
satisfied

Threshold test, Photostability 4 hours < 70%: Cc1ccc(N2CC[C@@]3(O)C(=O)c4cc(C)c(C(F)(F)F)cc4N=C23)cc1
not satisfied

----------
Target: Bovine cardiac myosin (Bos taurus (Bovine), UniProt Q9BE39)
Experiment: Cardiac muscle myosin II actin-activated ATPase assay (NADH-coupled)
Assay type: biochemical
Conditions: 300 nM cardiac myosin, 10 μM actin, 25° C.; read-out: CMMII KI
pKi: −log10 of the molar value.
// -1 strictly below 5 in pKi; 1 otherwise

Determine whether measured pKi meets or exceeds 5 for Cc1cc2cc(N3CC[C@@]4(O)C(=O)c5cc(C)c(C)cc5N=C34)ccc2o1
-1

Determine whether measured pKi meets or exceeds 5 for O=C1c2cc(Cl)c(Cl)cc2N=C2N(c3ccccc3)CC[C@@]12O
-1

----------
Ki by entry:
Biological target: Rabbit skeletal myosin
Test: Skeletal muscle myosin II actin-activated ATPase assay
Conditions: 20 nM skeletal muscle myosin II; read-out: SKMMII KI
Quick note: give the figure in µM, leave out the unit.

Sample answers from the record:
compound: Cc1cc2c(cc1C)C(=O)[C@]1(O)CCN(c3cnc(CO)c(Cl)c3)C1=N2 [BPN-0028649]
endpointUnit: µM
Ki: 2.7
--
compound: Cc1cc(N2CC[C@@]3(O)C(=O)c4cc(C)c(C(F)(F)F)cc4N=C23)on1 [BPN-0027346]
endpointUnit: µM
Ki: 2
--
compound: Cc1cc(C)c2c(c1)N=C1N(c3ccc4ncccc4c3)CC[C@@]1(O)C2=O [BPN-0028697]
endpointUnit: µM
Ki: 1.9
--
compound: Cc1ccc2c(c1)C(=O)[C@]1(O)CCN(c3ccc4nc(C)ccc4c3)C1=N2 [BPN-0027289]
endpointUnit: µM
Ki: 1
--
compound: Cc1ccc2c(c1)C(=O)[C@]1(O)CCN(c3ccc4ccoc4c3)C1=N2 [BPN-0026285]
endpointUnit: µM
Ki: 0.9
--
compound: Cc1nc2cc(N3CC[C@@]4(O)C(=O)c5cc(C)c(C)cc5N=C34)ccc2o1 [BPN-0027118]
endpointUnit: µM
Ki: 0.68
--
compound: Cc1ccc(N2CC[C@@]3(O)C(=O)c4cc(C)c(C(F)(F)F)cc4N=C23)cc1 [BPN-0026819]
endpointUnit: µM
Ki: 1.7
--
compound: Cc1cc2c(cc1C(F)(F)F)N=C1N(c3ccc(Cl)cc3)CC[C@@]1(O)C2=O [BPN-0027080]
endpointUnit: µM
Ki: 4.8
--
compound: Cc1cc2c(cc1C)C(=O)[C@]1(O)CCN(c3cccc(Br)c3)C1=N2 [BPN-0026660]
endpointUnit: µM
Ki: 33
--
compound: Cc1ccc2cc(N3CC[C@@]4(O)C(=O)c5cc(C)c(C)cc5N=C34)ccc2n1 [BPN-0027490]
endpointUnit: µM
Ki: 0.41

Looking up COc1cc(N2CC[C@@]3(O)C(=O)c4cc(Cl)ccc4N=C23)ccn1 [BPN-0026621] , I found its Ki recorded as 3.4
